# Method summary: OD615 S. cerevisiae growth inhibition, permissive medium, pilot counter-assay, permissive growth control for S. cerevisiae lifespan shortening project (AID 705)
# Particulars: OD615, 24 h, at 10 µM, active compounds read high
Recorded endpoint: growth inhibition (%)
Answers are plain numbers, in %.

Examples with answers:
Molecule | growth inhibition, %
CCCc1[nH]nc2c1C(C1CC=CCC1)C(C#N)=C(N)O2 (stereo unspecified) | 4.52
CCOC(=O)N1CCN(C2CC(=O)N(c3ccccc3)C2=O)CC1 (stereo unspecified) | 4.38
CN1CCN(c2ncnc3c2sc2nc(N4CCCC4)c4c(c23)CC(C)(C)OC4)CC1 | -21.2
COC(=O)COC(=O)c1ccc(Oc2nc(OC)nc(N(C)C)n2)cc1 | -10.3

Your task in this section: give growth inhibition for each listed record.
1. Cc1cc(C)cc(N(CC(=O)NCc2ccco2)S(=O)(=O)c2c(C)noc2C)c1
2. O=C(CCCOc1ccccc1)n1nnc2ccccc21
3. COC(=O)c1ccc(NC(=O)CSc2nnc(-c3ccncc3)n2N)cc1
4. COC(=O)c1c(NC(=O)Cc2cccs2)sc(C)c1C

Ans.
1. -22
2. -10.8
3. -4.88
4. 2.9

---

# Method summary: RAM signaling pathway blockade in yeast – S. cerevisiae, Pdr1DBD-CYC8 efflux-inhibited sensitized strain, primary screen (AID 1298);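 note: 0% = DMSO untreated cells without growth and 100% = 10 µM 1-NA-PP1 full growth; higher means more yeast growth rescued from 5-FOA killing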
# Particulars: S. cerevisiae cbk1-as DSE1-URA3 strain, 5-FOA growth OD615, 2 d; at 50 µM; active compounds read high
Recorded endpoint: RAM network inhibition (%)
Give bare numbers, in %.

Molecule | Quantity unit | RAM network inhibition
O=c1c2cnn(-c3ccccc3)c2nc(-c2ccco2)n1-c1ccccc1 | % | 8.81

Your task in this section: give RAM network inhibition for each listed record.
1. CCN1CCN(C(=O)C(NS(=O)(=O)c2ccc3nc(C)sc3c2)C(C)C)CC1 (stereo unspecified)
2. CC(C)Cn1c(SCC#N)nc2ccccc2c1=O
3. Cc1ccc(NC(=O)CC2SC3=NCCN3C2=O)cc1 (stereo unspecified)
4. COC(=O)C(C)NC(=O)C1CCCN1S(=O)(=O)c1cc(C)c(Cl)cc1C (stereo unspecified)
5. C#CCn1c(=NC(=O)c2cccs2)sc2cccc(OC)c21

Ans.
[-0.04, 5.88, 1.49, 0.4, 7.2]

---

For each of the compounds below, state its viability.
# Method summary: SK-BR-3 cell growth inhibitors, pilot screen, 24 h, human (AID 572);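 note: compound exposure lasted between 18 and 24 h rather than exactly 24 h; 100% = carrier-treated control wells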
# Particulars: SK-BR-3 viability, CellTiter-Glo luminescence, at 10 µM, active compounds read low
Activity calls are given as the source filed them.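 The calls were made as follows: active = viability at or below 10% of carrier control in both of two separate runs; inconclusive = viability at or below 10% in only one of the two runs; inactive = the rest.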

Examples with answers:
Compound | viability
CCC1Oc2ccc(C)cc2N(CC(=O)N(Cc2cccnc2)Cc2ccc(C)o2)C1=O (stereo unspecified) | 93% (inactive)
Cc1cc(C)n2nc(C(=O)NCc3ccco3)nc2n1 | 101% (inactive)
O=C(CCNC(=O)Cn1ccc2ccccc2c1=O)NCCN1CCc2ccccc2C1 | 118% (inactive)
COc1ccc(OC)c(Nc2cc(-c3ccccc3)nc(N)n2)c1 | 72% (inactive)
CCOC(=O)c1ccc(Oc2nc(SC)nc(N(C)C)n2)cc1 | 73.5% (inactive)
CCOc1ccc2nc(SCC#N)c(C#N)cc2c1 | 93% (inactive)
O=C(Nc1cccc2ccccc12)c1cnccn1 | 82% (inactive)
Cn1c2c(c(=O)n(C)c1=O)C(c1cccc(Br)c1)C1C(=O)c3ccccc3C1=N2 (stereo unspecified) | 103% (inactive)
O=C(NCCC1=CCCCC1)C1CC(=O)N(C2CCCCCC2)C1 (stereo unspecified) | 98% (inactive)
O=C(CSc1nnc(COc2ccc(Cl)cc2)o1)N1CCN(c2ccccc2)CC1 | 100% (inactive)

Kindly review the next compound as well.
Qu. Kindly indicate its recorded viability. Item: O=C(CSc1nnc(CNC(=O)c2cccs2)o1)Nc1cccc(C(F)(F)F)c1
Ans. 83.5% (inactive)
